Assay: Fecal excretion study in rats after oral NS, SF or CNS (LC–MS/MS)
Assay type: in vivo
Settings: male, Sprague Dawley; rat feces, oral CNS 110 mg/kg, 24 h
reported property: concentration at 24 h (ng/mL)
Respond numerically; units are ng/mL and should not be typed.

Completed entries (count: 3):
# compound, observed result
rows = [
    ("CC(C)=CCC[C@](C)(O[C@@H]1O[C@H](CO[C@@H]2O[C@H](CO)[C@@H](O)[C@H](O)[C@H]2O)[C@@H](O)[C@H](O)[C@H]1O)[C@H]1CC[C@]2(C)[C@@H]1[C@H](O)C[C@@H]1[C@@]3(C)CC[C@H](O[C@@H]4O[C@H](CO)[C@@H](O)[C@H](O)[C@H]4O[C@@H]4O[C@H](CO)[C@@H](O)[C@H](O)[C@H]4O)C(C)(C)[C@@H]3CC[C@]12C [ginsenoside Rb1]", 802),
    ("CC(C)=CCC[C@](C)(O[C@@H]1O[C@H](CO)[C@@H](O)[C@H](O)[C@H]1O)[C@H]1CC[C@]2(C)[C@@H]1[C@H](O)C[C@@H]1[C@@]3(C)CC[C@H](O)C(C)(C)[C@@H]3[C@@H](O[C@@H]3O[C@H](CO)[C@@H](O)[C@H](O)[C@H]3O[C@@H]3O[C@@H](C)[C@H](O)[C@@H](O)[C@H]3O)C[C@]12C [ginsenoside Re]", 366),
    ("CC(C)=CCC[C@](C)(O[C@@H]1O[C@H](CO)[C@@H](O)[C@H](O)[C@H]1O)[C@H]1CC[C@]2(C)[C@@H]1[C@H](O)C[C@@H]1[C@@]3(C)CC[C@H](O[C@@H]4O[C@H](CO)[C@@H](O)[C@H](O)[C@H]4O[C@@H]4O[C@H](CO)[C@@H](O)[C@H](O)[C@H]4O)C(C)(C)[C@@H]3CC[C@]12C [ginsenoside Rd]", 119),
]

Query compound follows.
## Input Please report the recorded concentration at 24 h for CC(C)=CCC[C@](C)(O[C@@H]1O[C@H](CO)[C@@H](O)[C@H](O)[C@H]1O)[C@H]1CC[C@]2(C)[C@@H]1[C@H](O)C[C@@H]1[C@@]3(C)CC[C@H](O)C(C)(C)[C@@H]3[C@@H](O[C@@H]3O[C@H](CO)[C@@H](O)[C@H](O)[C@H]3O)C[C@]12C [ginsenoside Rg1] .
## Output 980
